STUDY SYSTEM: Protein S100-A4 (Homo sapiens) (UniProt P26447)
Sequence (P26447 whole entry, looked up): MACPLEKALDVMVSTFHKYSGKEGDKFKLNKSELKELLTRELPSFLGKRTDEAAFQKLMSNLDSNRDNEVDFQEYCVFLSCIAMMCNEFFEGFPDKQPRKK
EXPERIMENT: inhibitors of S100A4-myosin IIA peptide binding, primary screen, biochemical, fluorescence polarization, TAMRA-MyoIIA peptide (AID 652163)
CONDITION PARAMETERS: at 10.7 µM, hits give high values
In all, about 360,000 compounds went through this assay and about 500 (0.14%) were called active. The sample holds actives, similar compounds and a random draw of the others, so the mix is not that of the screen.
ENDPOINT NAME: inhibition (%)

{"QUERY SMILES": "COc1ccc(C(=O)Nc2ccc3c(c2)OC[C@H](C)N(C(C)=O)C[C@@H](C)[C@@H](OC)CN(C)C3=O)cc1", "ENDPOINT NAME": "inhibition", "VALUE OBSERVED": -16}
{"QUERY SMILES": "CCC(=O)N1C[C@H](C)[C@H](OC)CN(C)C(=O)c2ccc(NC(=O)Nc3cccc(F)c3)cc2OC[C@@H]1C", "ENDPOINT NAME": "inhibition", "VALUE OBSERVED": -17.6}
{"QUERY SMILES": "C[C@@H]1CN([C@@H](C)CO)C(=O)Cc2cc(NC(=O)Nc3cccc4ccccc34)ccc2O[C@H]1CN(C)CC1CCCCC1", "ENDPOINT NAME": "inhibition", "VALUE OBSERVED": 8.63}
{"QUERY SMILES": "COc1ccc(S(=O)(=O)N(C)C[C@H]2Oc3ccc(NC(=O)Nc4c(C)noc4C)cc3C(=O)N([C@@H](C)CO)C[C@@H]2C)cc1", "ENDPOINT NAME": "inhibition", "VALUE OBSERVED": -9.31}
